This collection of values is drawn from ChEMBL document CHEMBL3826961.

- ASSAY COMMENT: Cytotoxicity against LPS-induced mouse BV2 cells assessed as cell viability after 24 hrs by MTT assay
- Assay type: cell-based, BV-2
- Parameters: concentration or dose not given beside the values
- SETTINGS: read-out: Activity
Entries and their measured viability at 24 h follow.
Kindly answer with a numeric value in %, unit omitted.

A selection of reference data follows.
CC(CC(=O)C[C@@H](C)[C@H]1CC(=O)[C@@]2(C)C3=C(C(=O)C[C@]12C)[C@@]1(C)CC[C@H](O)C(C)(C)[C@@H]1C[C@@H]3O)C(=O)O (stereo not given in full) | 94.7
CC(CC(=O)C[C@@H](C)[C@H]1CC(=O)[C@@]2(C)C3=C(C(=O)[C@@H](O)[C@]12C)[C@@]1(C)CC[C@H](O)C(C)(C)[C@@H]1C[C@@H]3O)C(=O)O (stereo not given in full) | 95.2
CC(=O)O[C@@H]1C(=O)C2=C(C(=O)C[C@H]3C(C)(C)[C@@H](O)CC[C@]23C)[C@]2(C)C(=O)C[C@H]([C@H](C)CC(=O)CC(C)C(=O)O)[C@@]12C (stereo not given in full) | 90.4
O=c1c(O)c(-c2ccc(O)c(O)c2)oc2cc(O)cc(O)c12 | 92.5

Next compound, viability at 24 h to be filled in.
Ask: viability at 24 h lookup needed for CC(CC(=O)C[C@@H](C)[C@H]1C[C@H](O)[C@@]2(C)C3=C(C(=O)C[C@]12C)[C@@]1(C)CC[C@H](O)C(C)(C)[C@@H]1CC3=O)C(=O)O (stereo not given in full) , thanks.
Reply: 89.3
